This collection of values is drawn from patent US12304894B2.

Recorded 11b-HSD2 oxidase (activ rem %) Microcosms 100 nM, one value per entry.
- Tested on: 11β-HSD2
- experimental protocol: 11β-HSD2 oxidase activity in human hepatic microsomes (HTRF Cortisol Kit)
- Assay type: biochemical
- condition notes: remaining activity at 100 nM compound
endpoint name: 11b-HSD2 oxidase (activ rem %) Microcosms 100 nM

input smiles	system tested	test result
Brc1ccc(CCc2nc(C34CC5CC(CC(C5)C3)C4)no2)cc1	11β-HSD2	79.5
Oc1ccc(CCc2nc(C34CC5CC(CC(C5)C3)C4)no2)cc1	11β-HSD2	58.3
CC(C)(C)c1ccc(CCc2nc(C34CC5CC(CC(C5)C3)C4)no2)cc1	11β-HSD2	49.7
Fc1cccc(CCc2nc(C34CC5CC(CC(C5)C3)C4)no2)c1	11β-HSD2	59.2
COc1ccc(CCc2nc(C34CC5CC(CC(C5)C3)C4)no2)cc1	11β-HSD2	60.0
O=[N+]([O-])c1ccc(CCc2nc(C34CC5CC(CC(C5)C3)C4)no2)cc1	11β-HSD2	62.0
Cc1ccc(CCc2nc(C34CC5CC(CC(C5)C3)C4)no2)cc1	11β-HSD2	40.1
COc1cccc(CCc2nc(C34CC5CC(CC(C5)C3)C4)no2)c1	11β-HSD2	61.9
c1ccc(CCc2nc(C34CC5CC(CC(C5)C3)C4)no2)cc1	11β-HSD2	55.4
Clc1ccc(CCc2nc(C34CC5CC(CC(C5)C3)C4)no2)cc1	11β-HSD2	59.4
Cc1cccc(CCc2nc(C34CC5CC(CC(C5)C3)C4)no2)c1	11β-HSD2	97.9
c1cc(CCc2nc(C34CC5CC(CC(C5)C3)C4)no2)ccn1	11β-HSD2	59.2
c1ccc(CCc2nc(C34CC5CC(CC(C5)C3)C4)no2)nc1	11β-HSD2	70.2
Fc1ccc(CCc2nc(C34CC5CC(CC(C5)C3)C4)no2)cc1	11β-HSD2	68.8

###

- system tested: recombinant 11β-HSD1 enzyme (Homo sapiens (Human))
- Sequence (P28845 whole entry): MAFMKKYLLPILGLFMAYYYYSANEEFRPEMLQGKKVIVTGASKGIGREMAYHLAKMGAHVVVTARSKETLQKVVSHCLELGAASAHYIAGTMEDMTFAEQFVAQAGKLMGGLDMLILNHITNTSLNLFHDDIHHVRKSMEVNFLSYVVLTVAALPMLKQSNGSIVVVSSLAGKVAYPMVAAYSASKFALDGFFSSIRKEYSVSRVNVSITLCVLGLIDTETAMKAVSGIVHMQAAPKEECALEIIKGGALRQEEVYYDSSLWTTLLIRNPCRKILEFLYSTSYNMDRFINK
- experimental protocol: 11β-HSD1 reductase activity (HTRF Cortisol Kit)
- condition notes: 266 nM cortisone, 333 μM NADPH, read-out: 11b-HSD1 reductase (HTRF) IC50
- Protocol: Determination of 11β-HSD1 Reductase Activity First, stock solutions of the compounds were prepared in DMSO at a concentration of […], of which serial dilutions were made in order to determine the efficacy curve. […] Initially, the enzyme concentration to be used in the assays in order to evaluate the biological activity of the compounds was determined. […]
pIC50: −log10 of the molar value.

compound	pIC50
CC(C)(C)c1ccc(CCc2nc(C34CC5CC(CC(C5)C3)C4)no2)cc1 [BD-41]	6.99
Brc1ccc(CCc2nc(C34CC5CC(CC(C5)C3)C4)no2)cc1 [BD-35]	8.00
Cc1ccc(CCc2nc(C34CC5CC(CC(C5)C3)C4)no2)cc1 [BD-36]	6.99
Cc1cccc(CCc2nc(C34CC5CC(CC(C5)C3)C4)no2)c1 [BD-40]	7.93
O=[N+]([O-])c1ccc(CCc2nc(C34CC5CC(CC(C5)C3)C4)no2)cc1 [BD-46]	7.62
c1cc(CCc2nc(C34CC5CC(CC(C5)C3)C4)no2)ccn1 [BD-39]	7.01
c1ccc(CCc2nc(C34CC5CC(CC(C5)C3)C4)no2)nc1 [BD-45]	8.96
Fc1cccc(CCc2nc(C34CC5CC(CC(C5)C3)C4)no2)c1 [BD-42]	7.04
COc1ccc(CCc2nc(C34CC5CC(CC(C5)C3)C4)no2)cc1 [BD-32]	7.02
c1ccc(CCc2nc(C34CC5CC(CC(C5)C3)C4)no2)cc1 [BD-31]	6.83
Clc1ccc(CCc2nc(C34CC5CC(CC(C5)C3)C4)no2)cc1 [BD-33]	8.04
Fc1ccc(CCc2nc(C34CC5CC(CC(C5)C3)C4)no2)cc1 [BD-34]	6.98
COc1cccc(CCc2nc(C34CC5CC(CC(C5)C3)C4)no2)c1 [BD-38]	6.99
Oc1ccc(CCc2nc(C34CC5CC(CC(C5)C3)C4)no2)cc1 [BD-37]	8.96
